# assayed target: cloned human MC4R (Homo sapiens, UniProt P32245)
# Construct: made in house; host or cells: Hi5 insect cells (baculovirus infection); membrane preparation
# Sequence (P32245 whole entry): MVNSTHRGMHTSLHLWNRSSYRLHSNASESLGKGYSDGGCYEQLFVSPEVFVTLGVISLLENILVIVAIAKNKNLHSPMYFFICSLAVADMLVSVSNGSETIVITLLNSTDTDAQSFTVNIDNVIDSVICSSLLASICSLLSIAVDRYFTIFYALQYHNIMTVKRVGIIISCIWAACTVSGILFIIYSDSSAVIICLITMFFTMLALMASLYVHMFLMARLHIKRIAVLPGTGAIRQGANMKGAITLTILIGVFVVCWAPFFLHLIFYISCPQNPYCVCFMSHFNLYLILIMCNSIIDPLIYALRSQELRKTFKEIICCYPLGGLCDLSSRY
# assay summary: Membrane binding assay: competitive inhibition of [125I]NDP-α-MSH binding
# particulars: at 10 μM; [125I]NDP-α-MSH displacement; read-out: Displacement Rate (%) (at 10 μM)
Would you mind telling me the reported inhibition at 10 µM of each entry?

Exercise: Field request: inhibition at 10 µM | item: N[C@@H](Cc1ccc(OCc2ccccc2)cc1)C(=O)N1CCCN(Cc2ccccc2)CC1
Key: 35 to 70%

Exercise: Field request: inhibition at 10 µM | item: CC(C)(C)c1cc(CN2CCN(C(=O)[C@@H](N)Cc3ccc(OCc4ccccc4)cc3)CC2)cc(C(C)(C)C)c1O
Key: 91 to 100%

Exercise: Field request: inhibition at 10 µM | item: CCn1c2ccccc2c2cc(CN3CCN(C(=O)[C@@H](N)Cc4ccc(OCc5ccccc5)cc4)CC3)ccc21
Key: 91 to 100%
